Source: patent US5541175A

- Test system: Staphylococcus aureus 6538P
- Protocol text: Minimum inhibitory concentration (agar 2-fold dilution)
- Format: cell-based
- Run parameters: S. aureus 6538P, Muller-Hinton agar, 37° C., 20 hours, read-out: Minimum Inhibitory Concentration
Known MIC of a selection of compounds
Just the number please, in µg/mL, no unit attached.

Here are 4 compounds together with their reported answers.
{"Cpd smiles": "Nc1nc(/C(=N/O[C@H](C(=O)O)c2ccc(O)c(O)c2)C(=O)N[C@@H]2C(=O)N3C(C(=O)[O-])=C(/C=C/C[n+]4cnc(N)c(N)c4N)CS[C@H]23)cs1", "Units text": "µg/mL", "MIC": 0.5}
{"Cpd smiles": "Nc1cc[n+](C/C=C/C2=C(C(=O)[O-])N3C(=O)[C@@H](NC(=O)/C(=N\\O[C@H](C(=O)O)c4ccc(O)c(O)c4)c4csc(N)n4)[C@H]3SC2)cn1", "Units text": "µg/mL", "MIC": 0.5}
{"Cpd smiles": "Cc1c(N)nc[n+](C/C=C/C2=C(C(=O)[O-])N3C(=O)[C@@H](NC(=O)/C(=N\\O[C@H](C(=O)O)c4ccc(O)c(O)c4)c4csc(N)n4)[C@H]3SC2)c1N", "Units text": "µg/mL", "MIC": 0.5}
{"Cpd smiles": "Cc1c(N)nc[n+](C/C=C/C2=C(C(=O)[O-])N3C(=O)[C@@H](NC(=O)/C(=N\\O[C@@H](C(=O)O)c4ccc(O)c(O)c4)c4csc(N)n4)[C@H]3SC2)c1N", "Units text": "µg/mL", "MIC": 0.5}

Now take the following compound into account.
Lab note: need MIC for `Nc1cc(N)[n+](C/C=C/C2=C(C(=O)[O-])N3C(=O)[C@@H](NC(=O)/C(=N\O[C@@H](C(=O)O)c4ccc(O)c(O)c4)c4csc(N)n4)[C@H]3SC2)cn1` on Staphylococcus aureus 6538P, anyone have it? 0.5
